The measurements presented in this section are drawn from PubChem BioAssay.

- experiment: growth suppression of beta-catenin knockout HCT116, pilot screen, human colon tumor cells (AID 823);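 further: 0% = wells killed by 20 µM Hyamine and 100% = untreated DMSO cell wells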
- run parameters: CellTiter-Glo, 60 h, at 10 µM, stronger effect = lower value
Records with an inconclusive call do not appear.
Label y when viability is strictly below 90%; at or above that, label n.

Recorded results for 4 compounds are shown here.
compound=CC(C)N(Cc1ccccc1)C(=O)c1cnc2n(c1=O)CCS2 classification=n
compound="CCCSC1=C(C#N)C(c2ccc(Cl)cc2Cl)CC(=O)N1 (stereo not given)" classification=y
compound=COc1cc(OC)cc(C(=O)Nn2cc(C(=O)N3CCN(C)CC3)c3ccccc3c2=O)c1 classification=n
compound=COC(=O)c1c(-c2cccc(OC)c2)csc1N classification=n

Query string: Is viability strictly under 90% for the entry COc1ccc(C2CC(=O)c3cnc(NC(=O)c4ccccc4)nc3C2)cc1OC (stereo not given) ?
Result string: n

Query string: Is viability strictly under 90% for the entry Cc1ccc(-c2nc(CS(=O)(=O)CC(=O)N3CC(C)CC(C)C3)c(C)o2)cc1 (stereo not given) ?
Result string: y

Query string: Is viability strictly under 90% for the entry CCOC(=O)c1ccc(NC(=O)CSc2nnc(Cn3c(=O)sc4ccccc43)n2C)cc1 ?
Result string: n

Query string: Is viability strictly under 90% for the entry COc1ccc(-c2noc(-c3cccc(OC)c3OC)n2)cc1OC ?
Result string: n

Query string: Is viability strictly under 90% for the entry O=C(CN(CC(=O)N1CCOCC1)S(=O)(=O)c1ccc(Br)s1)N1CCOCC1 ?
Result string: n

---

Provide the recorded viability increase for the entries that follow.
- experiment: viability gain of MRP-1-high H69AR cells under doxorubicin, pilot screen, MRP-1 activator project, CellTiter-Glo, duplicate (AID 807);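 further: compound pretreatment 18-22 h then 72 h combined with doxorubicin; 0% = doxorubicin alone and 100% = vehicle without doxorubicin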
- run parameters: H69AR viability with doxorubicin, CellTiter-Glo luminescence; at 10 µM; stronger effect = higher value
Answers are plain numbers, in %.

Example entries and their recorded answers appear below.
compound=CCCC(=O)Nc1nc2c(OC)ccc(OC)c2s1 readout_units=% test_value=-3.01
compound=COc1ccccc1C(=O)Nc1cc(-c2nn3c(C)nnc3s2)ccc1C readout_units=% test_value=-3.73
compound=O=C(c1cc2ccccn2n1)N1CCCC1 readout_units=% test_value=-1.17

Please state viability increase for every compound in the list that follows.
1. CC1(C)Cc2nc(-c3ccccc3)n3cnnc3c2CO1
2. O=C(CSc1oc(-c2ccco2)nc1S(=O)(=O)c1ccc(Cl)cc1)NCC1CCCO1 (stereo unspecified)
3. Cc1ccc2cc(CCNC(=O)C(C)(C)C)c(=O)[nH]c2c1

Result string:
1. -1.77
2. -1.13
3. 0.4

---

- experiment: HUVEC growth inhibition – cell-based, human, primary screen (AID 575);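 further: 100% = median of untreated cell wells with 0.1% DMSO on each plate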
- run parameters: HUVEC proliferation, CellTiter-Glo luminescence, 72 h; at 10 µM; stronger effect = lower value
Provide the recorded viability for the entries that follow.
Give bare numbers, in %.

Example entries and their recorded answers appear below.
molecule="Cc1cc(C)n(-c2nc(C)nc3sc4c(c23)CCC(C)C4)n1 (stereo not drawn)" reported_endpoint=viability test_value=80.8
molecule=O=C(c1ccccc1)c1ccncc1 reported_endpoint=viability test_value=100
molecule="O=C(CN(CCc1ccccc1)C(=O)CNS(=O)(=O)c1ccccc1)NCC1CCCO1 (stereo not drawn)" reported_endpoint=viability test_value=86.9

Please state viability for every molecule in the list that follows.
1. CCC(C)Nc1nc2c(c(=O)n(C)c(=O)n2C)n1Cc1ccc(F)cc1 (stereo not drawn)
2. CCOC(=O)c1cc2c(=O)n3cccc(C)c3nc2n(CCc2ccccc2)c1=N
3. CC(C(=O)Nc1ccccc1-c1ccccc1)N1CCOCC1 (stereo not drawn)
4. COc1cccc(Oc2cn[nH]c2-c2ccc(O)cc2O)c1
5. CCOC(=O)N1CCC(N2C(=O)c3ccc(C(=O)NCc4ccco4)cc3C2=O)CC1
6. CCOc1cc(-c2nc(-c3ccc(C)nc3OCC)no2)cc(OCC)c1OCC
7. CCCCC1C(=O)N(c2ccccc2)N(c2ccccc2)C1=O

Result string:
88.6
75.9
104
65.9
79.6
82.2
99.1

---

- experiment: reversal of MRP1-mediated doxorubicin resistance, pilot screen, H69AR cells, doxorubicin co-treatment (AID 601)
- run parameters: H69AR cells + 2 uM doxorubicin, CellTiter-Glo, 72 h; measured here: viability with 2 uM doxorubicin; at 10 µM; stronger effect = lower value
reported endpoint: viability (%)
Answers are plain numbers, in %.

Example entries and their recorded answers appear below.
compound="CC1CCN(CC(O)COC2CCC(C(C)(C)C)CC2)CC1 (stereo not drawn)" readout_units=% test_value=71.4
compound=COc1ccc(C)cc1S(=O)(=O)Nc1cccnc1 readout_units=% test_value=86.9

Please state viability for every compound in the list that follows.
1. CN(C)S(=O)(=O)c1ccc(/C(O)=C2/C(=O)C(=O)N(CCN3CCCCC3)C2c2cccnc2)cc1 (stereo not drawn)
2. COCCN(C(=O)CCC(=O)Nc1ccccn1)C(C(=O)NC1CCCC1)c1ccc(OC)cc1 (stereo not drawn)

Result string:
[90.7, 96.3]

---

- experiment: reversal of MRP1-mediated doxorubicin resistance, pilot screen, H69AR cells, doxorubicin co-treatment (AID 601)
- run parameters: H69AR cells + 2 uM doxorubicin, CellTiter-Glo, 72 h; at 10 µM; stronger effect = higher value
Provide the recorded differential viability (reversal) for the entries that follow.
Answers are plain numbers, in %.

Example entries and their recorded answers appear below.
molecule=CCCC(=O)Nc1ccc(NC(=O)C2CC2)cn1 test_value=6.95
molecule=O=C(Nc1ccccc1)N1C(=O)C2(OCCO2)c2ccccc21 test_value=-11.8
molecule="Cn1c(C(=O)N2CCCC(C(=O)NCCCc3ccccc3)C2)cc2sccc21 (configuration not stated)" test_value=-16.3
molecule=Cc1ccc(C)c2[nH]c(=O)c(CN(CCN3CCCC3)C(=O)Nc3cccc(Cl)c3)cc12 test_value=-6.23
molecule=CCN(CC)c1ccc(NC(=O)CN2CCN(CC(=O)Nc3ccccc3F)CC2)cc1 test_value=11
molecule=Cc1ccc2[nH]c3c(c2c1)CCc1cn[nH]c1-3 test_value=-18.3
molecule=Cc1nc2ccccc2cc1O test_value=-16.9
molecule="CCN(CC)C(=O)C1CCCN(Cc2ccc(N(C)C)cc2)C1 (configuration not stated)" test_value=-3.46
molecule="COc1cccc(OCC(O)CN2CCN(CCO)CC2)c1 (configuration not stated)" test_value=1.65
molecule="CCCC(CCC)C(=O)OC1C[C@H]2CC[C@@H](C1)[N+]2(C)C (some centres not stated)" test_value=9.01

Please state differential viability (reversal) for every molecule in the list that follows.
1. COCCN1C(=O)c2oc3c(C)cc(C)cc3c(=O)c2C1c1cccc(O)c1 (configuration not stated)
2. COC(=O)C(O)(CC(=O)c1ccc(OC)cc1)C(F)(F)F (configuration not stated)

Result string:
1: -2.81; 2: 0.63

---

- experiment: SK-BR-3 cell growth inhibitors, pilot screen, 24 h, human (AID 572);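 further: compound exposure lasted between 18 and 24 h rather than exactly 24 h; 100% = carrier-treated control wells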
- run parameters: SK-BR-3 viability, CellTiter-Glo luminescence, at 10 µM, stronger effect = lower value
reported endpoint: viability (%)
Answers are plain numbers, in %.

Example entries and their recorded answers appear below.
compound=COc1cc(OC)c(C2N(C)c3ccccc3N2C)cc1OC test_value=91.5
compound="CCC(C)(C)NC(=O)C(OC(=O)c1ccco1)c1ccccc1OC (stereo unspecified)" test_value=99

Please state viability for every compound in the list that follows.
1. Cc1ccc(-n2ncc(C(=O)N3CCc4ccccc4C3)c2NC(=O)c2ccco2)cc1C
2. Cc1cc2ccccn2c1C(=O)c1ccncc1
3. CCC(=O)c1ccc(OCCN2CCOCC2)cc1

Result string:
1: 94; 2: 114; 3: 99.5

---

- experiment: OD615 S. cerevisiae growth inhibition, permissive medium, pilot counter-assay, permissive growth control for S. cerevisiae lifespan shortening project (AID 705)
- run parameters: OD615, 24 h, at 10 µM, stronger effect = higher value
Provide the recorded growth inhibition for the entries that follow.
Answers are plain numbers, in %.

Example entries and their recorded answers appear below.
compound=Cc1cccc(N(CC(=O)Nc2c(C)n(C)n(-c3ccccc3)c2=O)S(C)(=O)=O)c1 reported_endpoint="growth inhibition" test_value=-9.29
compound=COC(=O)C1=C(C)N(Cc2cccnc2)C(=O)C1 reported_endpoint="growth inhibition" test_value=-10.7
compound="O=C1CC(c2cccs2)CC(O)=C1C=NCCN1CCNCC1 (stereo unspecified)" reported_endpoint="growth inhibition" test_value=-11.8

Please state growth inhibition for every compound in the list that follows.
1. Cn1c(SCC(=O)N2CCCCCC2)nc2c([nH]c3ccccc32)c1=O
2. COc1ccc(-c2csc(N3CCN(C(=O)c4ccco4)CC3)n2)cc1
3. CCn1c(SCC(=O)N2CCCC2)nc2c(c1=O)SC(C)C2 (stereo unspecified)
4. Cc1c(C(=O)NCc2ccccn2)oc2ccc(S(=O)(=O)N3CCOCC3)cc12

Result string:
1: -14.3; 2: -13; 3: -17.4; 4: -0.375

---

- measurement target: Receptor tyrosine-protein kinase erbB-2 (Homo sapiens) (UniProt P04626)
- Sequence (P04626 whole entry, looked up): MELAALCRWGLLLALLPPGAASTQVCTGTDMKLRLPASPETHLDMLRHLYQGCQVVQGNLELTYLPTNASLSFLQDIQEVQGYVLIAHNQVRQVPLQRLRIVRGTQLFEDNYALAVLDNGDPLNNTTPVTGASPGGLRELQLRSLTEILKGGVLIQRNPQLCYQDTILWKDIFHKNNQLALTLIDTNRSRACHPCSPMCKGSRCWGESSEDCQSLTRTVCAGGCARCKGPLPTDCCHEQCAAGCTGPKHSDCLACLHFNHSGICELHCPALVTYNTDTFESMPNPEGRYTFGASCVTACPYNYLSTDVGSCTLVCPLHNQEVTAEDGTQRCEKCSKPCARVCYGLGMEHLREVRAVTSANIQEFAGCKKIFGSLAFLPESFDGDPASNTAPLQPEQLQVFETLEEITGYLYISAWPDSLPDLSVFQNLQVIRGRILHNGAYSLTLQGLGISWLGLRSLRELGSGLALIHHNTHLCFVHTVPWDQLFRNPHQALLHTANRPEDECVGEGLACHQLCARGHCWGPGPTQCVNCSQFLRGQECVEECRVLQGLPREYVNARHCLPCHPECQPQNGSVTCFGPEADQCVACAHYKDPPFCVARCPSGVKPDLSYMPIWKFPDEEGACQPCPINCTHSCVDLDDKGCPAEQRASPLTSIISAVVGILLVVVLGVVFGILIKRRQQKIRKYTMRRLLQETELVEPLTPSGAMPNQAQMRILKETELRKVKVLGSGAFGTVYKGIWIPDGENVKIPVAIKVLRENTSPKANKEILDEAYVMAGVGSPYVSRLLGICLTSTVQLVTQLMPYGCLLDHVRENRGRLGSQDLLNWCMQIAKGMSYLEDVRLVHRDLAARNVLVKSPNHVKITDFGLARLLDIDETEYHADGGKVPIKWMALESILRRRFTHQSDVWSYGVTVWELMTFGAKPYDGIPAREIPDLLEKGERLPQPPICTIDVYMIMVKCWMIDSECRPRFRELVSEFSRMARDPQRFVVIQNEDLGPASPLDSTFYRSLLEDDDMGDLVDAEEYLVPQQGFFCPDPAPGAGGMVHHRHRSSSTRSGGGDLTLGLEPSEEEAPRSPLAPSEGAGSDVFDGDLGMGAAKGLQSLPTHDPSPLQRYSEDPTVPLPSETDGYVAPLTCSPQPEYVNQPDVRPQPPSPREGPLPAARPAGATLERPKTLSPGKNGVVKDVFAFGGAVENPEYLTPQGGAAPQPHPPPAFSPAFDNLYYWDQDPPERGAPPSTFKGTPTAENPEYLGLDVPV
- experiment: reducers of endogenous Her2 protein level, primary screen, SKBR3 breast tumor cells, AlphaScreen, ATP viability (AID 461);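 further: lower value means less Her2 protein in the cells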
- run parameters: 18-24 h, at 10 µM, stronger effect = lower value
Active and inactive are the calls of the source.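 Rule for the calls: active = Her2 level under about 52% in both replicate screens, with viability over 70% of control (limit read from the data); inconclusive = Her2 under the limit in one screen only, or viability under 70%; inactive = Her2 level above the set limit.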
reported endpoint: Her2 level

Example entries and their recorded answers appear below.
molecule="CC1CCN(CC(O)COC2CCC(C(C)(C)C)CC2)CC1 (centres undefined)" measurement_target="Receptor tyrosine-protein kinase erbB-2 (Homo sapiens) (UniProt P04626)" test_value="76% (inactive)"
molecule="CN(C)CCOC(c1ccccc1)c1ccccc1 (tested in a mixture with another compound)" measurement_target="Receptor tyrosine-protein kinase erbB-2 (Homo sapiens) (UniProt P04626)" test_value="106% (inactive)"

Please state Her2 level for every molecule in the list that follows.
1. CCCC(=O)O[C@]1(C(=O)COC(C)=O)CC[C@H]2[C@@H]3C[C@H](F)C4=CC(=O)C=C[C@]4(C)[C@@]3(F)[C@@H](O)C[C@@]21C
2. Cc1ccc(Cn2c(SCCN3CCCCC3)nc3c2c(=O)[nH]c(=O)n3C)cc1

Result string:
1. 97.5% (inactive)
2. 104% (inactive)
